Assay system Mast/stem cell growth factor receptor Kit (Homo sapiens); read-out recorded as pIC50.
Scale note: pIC50 = -log10(concentration in M).

Use the examples below as a reference point.
Please report the recorded pIC50 for Cc1cccc(NC(=O)N(C)Cc2ccc(-c3n[nH]c4c3Cc3ccc(CN5CCN(C)CC5)cc3-4)s2)c1 . 7.02

Next entry: CN1CCN(Cc2ccc3c(c2)Cc2c-3n[nH]c2-c2ccc(CNC(=O)Nc3ccccc3C(F)(F)F)s2)CC1 4.62

Follow-up entry: Cc1cccc(NC(=O)N(Cc2ccc(-c3[nH]nc4c3Cc3cc(CN5CCN(C)CC5)ccc3-4)s2)CC(C)C)c1 4.76

Lookup CN1CCN(Cc2ccc3c(c2)Cc2c-3n[nH]c2-c2ccc(CN(C)C(=O)Nc3cc(F)cc(C(F)(F)F)c3)s2)CC1 7.60

Next:
Entry under review: CN1CCN(Cc2ccc3c(c2)Cc2c(-c4ccc(CNC(=O)Nc5ccc(C(F)(F)F)cc5)s4)n[nH]c2-3)CC1 . Reported pIC50? 7.89

Field entry: Cc1cccc(NC(=O)NCc2ccc(-c3n[nH]c4c3Cc3ccc(CN5CCN(C)CC5)cc3-4)s2)c1 7.16

Consider next the compound CN1CCN(Cc2ccc3c(c2)-c2n[nH]c(-c4ccc(CN(C)C(=O)Nc5cccc(C(F)(F)F)c5)s4)c2C3)CC1 in the same way. 7.74

Another: Cc1cccc(NC(=O)N(Cc2ccc(-c3[nH]nc4c3Cc3cc(CN5CCN(C)CC5)ccc3-4)s2)C2CC2)c1 6.87

Request: CN1CCN(Cc2ccc3c(c2)-c2n[nH]c(-c4ccc(CN(C)C(=O)Nc5ccc(Cl)c(Cl)c5)s4)c2C3)CC1 7.55

Next compound up: CN1CCN(Cc2ccc3c(c2)-c2n[nH]c(-c4ccc(CN(C)C(=O)Nc5ccc(Br)cc5)s4)c2C3)CC1 7.77

Then Cc1cccc(NC(=O)N(CCC(C)C)Cc2ccc(-c3[nH]nc4c3Cc3cc(CN5CCN(C)CC5)ccc3-4)s2)c1 ? 5.31

Please do the same for Cc1cccc(NC(=O)NCc2ccc(-c3n[nH]c4c3Cc3cc(CN5CCN(C)CC5)ccc3-4)s2)c1 as well. 7.07

What do we get for CN1CCN(Cc2ccc3c(c2)-c2n[nH]c(-c4ccc(CN(C)C(=O)Nc5cccc(Cl)c5)s4)c2C3)CC1 ? 7.42
